# protocol.description: small molecules captured by biotinylated probe aFGF2 – biochemical, small-molecule microarray, fluorescence 635/667, stem cell growth factor project, primary screen (AID 1067);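 further: measures binding of biotinylated aFGF2 protein to printed compounds on slides; z-score merges feature fluorescence and signal-to-noise across triplicate slides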
# measurement.setup: higher = more signal
measured.attribute: composite z-score

Ask: Given CCCN1C(=O)[C@]2(Cc3ccccc31)N=C(c1ccc(OCCCO)cc1)O[C@@H]2c1ccccc1 , state its recorded composite z-score.
Result: 0.0732

Ask: Given C=CC[C@@]1(C(=O)NCCCOC)N=C(c2ccc(OCCCO)cc2)O[C@@H]1c1ccccc1N=[N+]=[N-] , state its recorded composite z-score.
Result: 0.0442

Ask: Given CCCC=C(CCC)[C@@H](NC(=O)c1cccs1)c1ccc(C(=O)OC)cc1 , state its recorded composite z-score.
Result: 0.905

Ask: Given COCCOC(=O)N1C(=O)[C@@]2(c3cc(C#CCCO)ccc31)[C@H](C(=O)Nc1nc3ccccc3s1)[C@H]1C(=O)O[C@H](c3ccccc3)[C@H](c3ccccc3)N1[C@@H]2c1ccc(O)cc1 , state its recorded composite z-score.
Result: -0.0403

Ask: Given COCCOC(=O)N1C(=O)[C@@]2(c3cc(C#CC4(O)CCCCCC4)ccc31)[C@H](C(=O)N1CCc3cc(OC)c(OC)cc3C1)[C@H]1C(=O)O[C@H](c3ccccc3)[C@H](c3ccccc3)N1[C@@H]2c1ccc(OCCO)cc1 , state its recorded composite z-score.
Result: 0.0088

Ask: Given O=C(NCc1ccc(F)cc1)[C@H]1C[C@H]2C(=O)NCC(=O)N2[C@H]1c1ccc(O)cc1 , state its recorded composite z-score.
Result: -0.0224

Ask: Given CCCCCN1CC=CC23O[C@@H]4/C=C\CCCOC(=O)C4[C@H]2C(=O)N(C(C)CO)[C@@H]3C1=O (some centres not stated) , state its recorded composite z-score.
Result: -0.219

---

# protocol.description: S6 kinase pathway phospho-S6 level changes – cell-based, A549, cytoblot, luminescence, serum-stimulated, primary screen (AID 1158);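 further: serum-stimulated A549 lung adenocarcinoma cells; signal is phosphorylated S6 detected by cytoblot immunostaining with HRP secondary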
# measurement.setup: 5 h, higher = more signal
Returns y if the recorded z-score is greater than or equal to -0.7, and n otherwise.

Ask: Is the recorded value of z-score equal to or greater than -0.7 for this compound? CN1C2C=C(CCCO)C(C3C(=O)N(C(N)=O)C(=O)C32)C1C1CC1 (stereo not drawn)
Result: n

Ask: Is the recorded value of z-score equal to or greater than -0.7 for this compound? NC(=O)[C@H]1[C@@H]2C(=O)O[C@@H](c3ccccc3)[C@@H](c3ccccc3)N2[C@@H](c2ccc(OCCO)cc2)[C@]12C(=O)Nc1ccc(C#CCCO)cc12
Result: y

Ask: Is the recorded value of z-score equal to or greater than -0.7 for this compound? O=C1C2C=CC(C(O)C3CC=CCC3)N(Nc3ccccc3)C2C(=O)N1c1ccccc1 (stereo not drawn)
Result: y

Ask: Is the recorded value of z-score equal to or greater than -0.7 for this compound? C=C(COC)C(=O)CC[C@@H](OC(C)=O)c1cccc(OCCO)c1
Result: y

Ask: Is the recorded value of z-score equal to or greater than -0.7 for this compound? CCOC(=O)C1=C[C@@H](c2ccccc2)N(S(=O)(=O)c2ccc(C)cc2)[C@H]1c1ccc(OC)cc1
Result: n

Ask: Is the recorded value of z-score equal to or greater than -0.7 for this compound? CN(C)c1ccc(C(O)C2C=CC3C(=O)NC(=O)C3N2Nc2ccccn2)cc1 (stereo not drawn)
Result: n

Ask: Is the recorded value of z-score equal to or greater than -0.7 for this compound? CCCCC(CC)C(O)C1C=CC2C(=O)N(c3ccccc3)C(=O)C2N1Nc1ccccc1F (stereo not drawn)
Result: y
